system: HT29 colon; experiment: NCI-60 one-dose screen, 48 h; conditions: 10 µM unless noted
This is part of a sample that, as a whole, favours compounds with a hit. Of some 83,000 tested, about 20% had one in any assay. Activity calls are given as the source filed them. The calls were made as follows: active = growth percent below 10; inactive = the rest.
// one of active, inactive, no free text

A selection of reference data follows.
Task item: Please state the recorded outcome for this compound: C1=C2CNCC3=Cc4ccc5ccccc5c4OC23Oc2c1ccc1ccccc21
Reply: inactive

Task item: Please state the recorded outcome for this compound: CO[C@@H]1[C@H](N(C)C(=O)c2ccccc2)C[C@@H]2O[C@]1(C)n1c3ccccc3c3c4c(c5c6ccccc6n2c5c31)C(=O)NC4=O
Reply: inactive

Task item: Please state the recorded outcome for this compound: COc1cc2nc(-c3ccc(C(F)(F)F)cc3)cc(OCCCN3CCCCC3)c2cc1OC
Reply: inactive

Task item: Please state the recorded outcome for this compound: CCOC(=O)C1CC(=O)c2cc(OC)c(OC)cc2C1 (stereo not drawn)
Reply: inactive

Task item: Please state the recorded outcome for this compound: Cc1n[nH]c(C)c1-c1c(C)n[nH]c1C
Reply: active

Next:
Task item: Please state the recorded outcome for this compound: CC(C)(C)OC(=O)N1CCN(c2ccc(N)cc2)C(=O)C1
Reply: inactive

Task item: Please state the recorded outcome for this compound: CC(=O)N1N=C(c2cccc(Nc3ccncc3)c2)CC1c1ccc2c(c1)OCO2 (stereo not drawn)
Reply: inactive

Task item: Please state the recorded outcome for this compound: Cc1ccc(C(=O)Nc2ccccc2C(=O)N/N=C(\c2ccccc2)c2ccccn2)cc1
Reply: inactive

Task item: Please state the recorded outcome for this compound: COc1cc(OC)cc(C2C3=C(COC3=O)Nc3cc(OC)ccc32)c1 (stereo not drawn)
Reply: active

Task item: Please state the recorded outcome for this compound: CC(=O)c1cccc(NS(=O)(=O)c2cccc(C(=O)Nc3ccc(Br)cc3)c2)c1
Reply: inactive

Task item: Please state the recorded outcome for this compound: NC(=S)N/N=C/c1ccc(OC(=O)COc2cc(Cl)c(Cl)cc2Cl)cn1
Reply: inactive

Task item: Please state the recorded outcome for this compound: C=CCn1c(SCC(=O)Nc2ccc(C(=O)/C=C/c3cc(OC)c(OC)c(OC)c3)cc2)nnc1-c1cc(OC)c(OC)c(OC)c1
Reply: active

Task item: Please state the recorded outcome for this compound: C#CCNC(=O)[C@H](Cc1ccccc1)NC(=O)[C@]12CC[C@@H](C(=C)C)[C@@H]1[C@H]1CC[C@@H]3[C@@]4(C)Cc5c([nH]c6ccccc56)C(C)(C)[C@@H]4CC[C@@]3(C)[C@]1(C)CC2
Reply: inactive

###

system: HOP-92 NSCLC; assay: NCI-60 one-dose screen, 48 h; details: 10 µM unless noted
The panel holds about 83,000 compounds, 20% with a hit somewhere; the sample as a whole holds those more often. Active and inactive are the calls of the source. Rule for the calls: active = growth percent below 10; inactive = the rest.
// one of class 1 (active), class 0 (inactive), no free text

A selection of reference data follows.
Task item: Please state the recorded outcome for this compound: C=C1C(=O)O[C@H]2[C@H]1CC/C(CNC(=O)/C=C/c1ccc(Br)cc1)=C\CC[C@@]1(C)O[C@@H]21
Reply: class 1

Task item: Please state the recorded outcome for this compound: CC(=O)OCCCCCNc1ccccc1
Reply: class 0

Task item: Please state the recorded outcome for this compound: Clc1ccc(C2CC(c3cccc(Nc4ccncc4)c3)=NN2c2cc(Cl)cc(Cl)c2)cc1 (stereo unspecified)
Reply: class 0

Next:
Task item: Please state the recorded outcome for this compound: CC1=NNC(=O)C1CCC(=O)N/N=C(\C)c1ccc2ccccc2c1 (stereo unspecified)
Reply: class 0

Task item: Please state the recorded outcome for this compound: CN(C)C(C(N)=O)c1ccc(Cl)cc1 (stereo unspecified)
Reply: class 0

Task item: Please state the recorded outcome for this compound: CCc1c(Nc2ccc(C)cc2)[nH]c(N)nc1=S
Reply: class 0
